Assign T/C to each entry below.
# System: P388 leukemia ip, CD2F1 mice, survival T/C
# experiment: NCI In Vivo Anticancer Drug Screen. Data for tumor model P388 Leukemia (intraperitoneal) in CD2F1 (CDF1) mice
# conditionLabel: endpoint: median survival time; dose: 25.0 mg/kg/injection; schedule: Q01DX009 (ip); vehicle: other; higher = longer survival
Toxic doses and inconclusive results are not listed.

Please go through the list and note T/C for each compound.
1. Nc1nc(N)c2c(n1)=NC(c1cccc3ccccc13)N=2 (centres undefined)
2. COc1ccc(S(=O)(=O)NN)cc1
3. COc1cc(Br)c(C(=O)Nc2ccccc2)cc1OC
4. CCCCCCCCN1C(=O)c2ccccc2C1=O
5. [O-]c1n[n+](-c2ccccc2)no1
6. O=c1c2cc3c(cc2c2cc([N+](=O)[O-])cc4c2n1CC4)OCO3
7. COc1cc2cccc(O)c2cc1OC
8. CCOC(=O)C1=C(C)NC(C)=C(C(=O)OCC)C1c1ccncc1

Response:
101 % of control
106 % of control
97 % of control
109 % of control
101 % of control
98 % of control
106 % of control
103 % of control

Bench note, P388 leukemia ip, CD2F1 mice, survival T/C: entry COc1cccc2c1C(=O)c1c(O)c3c(c(O)c1C2=O)CC(O)(C(C)=O)CC3O (centres undefined) , its T/C = 91 % of control
